- ASSAYED SYSTEM: HLA-B*15:09
- ASSAY PROCEDURE: IEDB peptide-MHC binding, purified MHC/direct/fluorescence; filed as Kd, often an IC50 or EC50 that approximates it; bounds were set here for any values at or beyond the usual limits of such assays
- SETUP CONDITIONS: source organism: Variola virus
MEASURE NAME: Kd (µM)
Give just the number in µM; leave the unit off.

Incoming: Notebook: pull reported Kd for HLA-B*15:09, entry `EHIPTMKIF`
Outgoing: 0.304

----------
- ASSAYED SYSTEM: HLA-A*69:01
- ASSAY PROCEDURE: IEDB peptide-MHC binding, purified MHC/competitive/fluorescence; filed as Kd, often an IC50 or EC50 that approximates it; bounds were set here for any values at or beyond the usual limits of such assays
- SETUP CONDITIONS: source organism: Homo sapiens
MEASURE NAME: Kd

Incoming: Quick one: Kd of `VTDTALAYF` ?
Outgoing: ≥ 20 µM
